Experiment: Pharmacokinetics after 24-hour subcutaneous infusion via fluid delivery device in male Beagle dogs (plasma, LC-MS/MS)
Conditions: male, Beagle, dog, in vivo, sc, 76 mg/animal, Plasma concentration of CBD, SC infusion 76 mg/animal, 1 hr, mean (BLOQ samples excluded)
VALUE_KIND: concentration at 1 h (ng/mL)
Write the answer as a number in ng/mL, unit excluded.

Q. Please look up its concentration at 1 h: C=C(C)[C@@H]1CCC(C)=C[C@H]1c1c(O)cc(CCCCC)cc1O
A. 5.31

----------
Assay: Pharmacokinetics after 24-hour subcutaneous infusion via fluid delivery device in male Beagle dogs (plasma, LC-MS/MS)
Details: male, Beagle, dog, in vivo, sc, 5.45 mg/kg, Tmax, Group 2, SC infusion, dose 5.45 mg/kg, mean
VALUE_KIND: tmax
Field: value (include unit after the number)

Q. Please look up its tmax: C=C(C)[C@@H]1CCC(C)=C[C@H]1c1c(O)cc(CCCCC)cc1O
A. 17 h

----------
Test: Pharmacokinetics after 24-hour subcutaneous infusion via fluid delivery device in male Beagle dogs (plasma, LC-MS/MS)
Conditions: male, Beagle, dog, in vivo, sc, 40 mg/animal, Plasma concentration of CBD, Group 1, SC infusion 40 mg/animal, 3 hr, mean (BLOQ samples excluded)
VALUE_KIND: concentration at 3 h (ng/mL)
Write the answer as a number in ng/mL, unit excluded.

Q. Please look up its concentration at 3 h: C=C(C)[C@@H]1CCC(C)=C[C@H]1c1c(O)cc(CCCCC)cc1O
A. 7.36

----------
Assay: Pharmacokinetics after 24-hour subcutaneous infusion via fluid delivery device in male Beagle dogs (plasma, LC-MS/MS)
Settings: male, Beagle, dog, in vivo, sc, 40 mg/animal, Plasma concentration of CBD, Group 1, SC infusion 40 mg/animal, 0.083 hr, individual animals, BLOQ = below 1 ng/mL
VALUE_KIND: concentration at 0.083 h (ng/mL)
Write the answer as a number in ng/mL, unit excluded.

Q. Please look up its concentration at 0.083 h: C=C(C)[C@@H]1CCC(C)=C[C@H]1c1c(O)cc(CCCCC)cc1O
A. 5.76

----------
Assay: Pharmacokinetics after 24-hour subcutaneous infusion via fluid delivery device in male Beagle dogs (plasma, LC-MS/MS)
Conditions: male, Beagle, dog, in vivo, sc, 76 mg/animal, Plasma concentration of CBD, SC infusion 76 mg/animal, 36 hr, mean (BLOQ samples excluded)
VALUE_KIND: concentration at 36 hr (ng/mL)
Write the answer as a number in ng/mL, unit excluded.

Q. Please look up its concentration at 36 hr: C=C(C)[C@@H]1CCC(C)=C[C@H]1c1c(O)cc(CCCCC)cc1O
A. 6.04

----------
Test: Pharmacokinetics after 24-hour subcutaneous infusion via fluid delivery device in male Beagle dogs (plasma, LC-MS/MS)
Settings: male, Beagle, dog, in vivo, sc, 76 mg/animal, Plasma concentration of CBD, SC infusion 76 mg/animal, 8 hr, mean (BLOQ samples excluded)
VALUE_KIND: concentration at 8 h (ng/mL)
Write the answer as a number in ng/mL, unit excluded.

Q. Please look up its concentration at 8 h: C=C(C)[C@@H]1CCC(C)=C[C@H]1c1c(O)cc(CCCCC)cc1O
A. 5.14

----------
Experiment: Pharmacokinetics after 24-hour subcutaneous infusion via fluid delivery device in male Beagle dogs (plasma, LC-MS/MS)
Conditions: male, Beagle, dog, in vivo, sc, 40 mg, MRTlast, Group 1, SC infusion 40 mg/animal, mean
VALUE_KIND: MRT last (h)
Write the answer as a number in h, unit excluded.

Q. Please look up its MRT last: C=C(C)[C@@H]1CCC(C)=C[C@H]1c1c(O)cc(CCCCC)cc1O [CBD, Cannabidiol]
A. 17.6

----------
Assay: Pharmacokinetics after 24-hour subcutaneous infusion via fluid delivery device in male Beagle dogs (plasma, LC-MS/MS)
Conditions: male, Beagle, dog, in vivo, sc, 3.21 mg/kg, Tmax, Group 1, SC infusion, dose 3.21 mg/kg, mean
VALUE_KIND: tmax (h)
Write the answer as a number in h, unit excluded.

Q. Please look up its tmax: C=C(C)[C@@H]1CCC(C)=C[C@H]1c1c(O)cc(CCCCC)cc1O
A. 23.3

----------
Experiment: Pharmacokinetics after 24-hour subcutaneous infusion via fluid delivery device in male Beagle dogs (plasma, LC-MS/MS)
Details: male, Beagle, dog, in vivo, sc, 76 mg, MRTlast, SC infusion 76 mg/animal, mean
VALUE_KIND: MRT last (h)
Write the answer as a number in h, unit excluded.

Q. Please look up its MRT last: C=C(C)[C@@H]1CCC(C)=C[C@H]1c1c(O)cc(CCCCC)cc1O
A. 24.3

----------
Experiment: Pharmacokinetics after 24-hour subcutaneous infusion via fluid delivery device in male Beagle dogs (plasma, LC-MS/MS)
Details: male, Beagle, dog, in vivo, sc, 76 mg/animal, Plasma concentration of CBD, SC infusion 76 mg/animal, 30 hr, mean (BLOQ samples excluded)
VALUE_KIND: concentration at 30 h (ng/mL)
Write the answer as a number in ng/mL, unit excluded.

Q. Please look up its concentration at 30 h: C=C(C)[C@@H]1CCC(C)=C[C@H]1c1c(O)cc(CCCCC)cc1O
A. 9.04

----------
Test: Pharmacokinetics after 24-hour subcutaneous infusion via fluid delivery device in male Beagle dogs (plasma, LC-MS/MS)
Conditions: male, Beagle, dog, in vivo, sc, 40 mg/animal, Plasma concentration of CBD, Group 1, SC infusion 40 mg/animal, 36 hr, mean (BLOQ samples excluded)
VALUE_KIND: concentration at 36 h (ng/mL)
Write the answer as a number in ng/mL, unit excluded.

Q. Please look up its concentration at 36 h: C=C(C)[C@@H]1CCC(C)=C[C@H]1c1c(O)cc(CCCCC)cc1O
A. 7.59
